B1: HDV Ribozyme (parent)
chain: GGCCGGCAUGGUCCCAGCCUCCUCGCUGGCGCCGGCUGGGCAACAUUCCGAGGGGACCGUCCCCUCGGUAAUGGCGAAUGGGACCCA

# Variants of: B1
# TEST METHOD NOTES: self-cleavage, relative activity (ratio to wild type); higher = more cleavage; co-transcriptional
Form field: self-cleavage (one value per entry).
MEASURED PARAMETER: self-cleavage

1. C24U G39U	0.111
2. G29C A42C	0
3. C22U G76U	0.794
4. G25U U60G	0.229
5. C57A A77C	0.314
6. G67U C75U	0.104
7. C19U C24G	0.0475
8. G55U C58G	1.04
9. U23C U47C	1.04
10. G31C C36U	0.0978
11. G40A A70G	0.914
